Origin of measurements: ChEMBL document CHEMBL2029278

target: Neuraminidase (Influenza A virus, UniProt B4URF0); experiment: Inhibition of wild type H1N1 swine influenza virus neuraminidase using 4-MU-NANA as substrate by fluorescence assay
Sequence (B4URF0 whole entry): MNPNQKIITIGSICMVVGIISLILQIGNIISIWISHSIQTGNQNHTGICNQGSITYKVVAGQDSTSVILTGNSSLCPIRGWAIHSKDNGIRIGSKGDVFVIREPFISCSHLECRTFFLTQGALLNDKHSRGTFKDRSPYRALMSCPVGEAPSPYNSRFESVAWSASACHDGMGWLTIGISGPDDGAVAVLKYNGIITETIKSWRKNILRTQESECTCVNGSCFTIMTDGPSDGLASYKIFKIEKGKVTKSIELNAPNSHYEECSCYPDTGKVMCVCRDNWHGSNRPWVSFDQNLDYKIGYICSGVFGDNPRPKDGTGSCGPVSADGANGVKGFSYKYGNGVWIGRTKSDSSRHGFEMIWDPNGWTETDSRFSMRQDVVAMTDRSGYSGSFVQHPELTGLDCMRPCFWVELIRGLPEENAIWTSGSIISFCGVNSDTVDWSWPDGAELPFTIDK
Please respond with Y when measured IC50 is strictly beneath 50 µM, and with N in all other cases.

* O=c1c2cc(O)ccc2oc2cc(O)cc(O)c12 | N
* COc1ccc(O)c2c(=O)c3cc(O)ccc3oc12 | Y
* O=c1c2cccc(O)c2oc2cc(O)c(O)c(O)c12 | N

====

target: UniProtKB B4URF0; assay: Inhibition of Influenza A virus H9N2 neuraminidase using 4-MU-NANA as substrate by fluorescence assay
pIC50: −log10 of the molar value.
ENDPOINT LABEL: pIC50

• O=c1c2cc(O)ccc2oc2cccc(O)c12 = 4.01
• O=c1c2cc(O)ccc2oc2cc(O)cc(O)c12 = 3.99
• O=c1c2ccccc2oc2cc(O)cc(O)c12 = 4.17
• COc1ccc(O)c2c(=O)c3cc(O)ccc3oc12 = 4.00
• O=c1c2cccc(O)c2oc2cc(O)c(O)c(O)c12 = 4.12

====

Quick reference: IC50 of the listed items.
biological target: Neuraminidase (Influenza A virus); test: Inhibition of Influenza A virus H1N1 neuraminidase using 4-MU-NANA as substrate by fluorescence assay
ENDPOINT LABEL: IC50

• COc1cc(O)c2oc3ccccc3c(=O)c2c1OC = > 367 µM
• COc1c(O)cc2oc3cc(O)ccc3c(=O)c2c1OC = > 347 µM
• COc1cccc2oc3ccc(O)cc3c(=O)c12 = > 413 µM
• COc1c2c(cc3c(=O)c4ccccc4oc13)OCO2 = > 370 µM
• COc1c(O)cc2c(=O)c3ccccc3oc2c1OC = > 367 µM

====

molecular target: Neuraminidase (Influenza A virus); experiment: Inhibition of Influenza A virus H9N2 neuraminidase using 4-MU-NANA as substrate by fluorescence assay
ENDPOINT LABEL: IC50

- COc1cccc2oc3ccc(O)cc3c(=O)c12: > 413 µM
- COc1c2c(cc3c(=O)c4ccccc4oc13)OCO2: > 370 µM
- COc1c(O)cc2c(=O)c3ccccc3oc2c1OC: > 367 µM
- COc1cc(O)c2oc3ccccc3c(=O)c2c1OC: > 367 µM
- COc1c(O)cc2oc3cc(O)ccc3c(=O)c2c1OC: > 347 µM
